Values were extracted from paper PMC10520499.

- System: estrogen-primed endometrium of immature rabbits
- Assay Text: McPhail assay, estrogen-primed rabbit endometrium
- Assay type: in vivo
- Condition Parameters: dose giving McPhail score 2; concomitant progesterone (1 g/animal/day [sic] s.c.)
Assign Score 2 for PR-antagonistic activity to each entry below.

Data request: Consider the compound shown here: COC[C@]1(OC)CC[C@H]2[C@@H]3CCC4=CC(=O)CCC4=C3[C@@H](c3ccc(/C=N/O)cc3)C[C@@]21C [Asoprisnil, reference compound] What is its recorded Score 2 for PR-antagonistic activity?
Data returned: ~ 0.3 mg/animal/day s.c.

Data request: Moving on to the next compound: C[C@]12C[C@H](c3ccc(S(C)(=O)=O)cc3)C3=C4CCC(=O)C=C4CC[C@H]3[C@@H]1CC[C@@]2(O)C(F)(F)C(F)(F)F [Vilaprisan, reference compound]
Data returned: < 0.3 mg/animal/day s.c.

Data request: Moving on to the next compound: C[C@]12C[C@H](c3ccc(-c4ccoc4)cc3)C3=C4CCC(=O)C=C4CC[C@H]3[C@@H]1CC[C@]21OCCC1=C(F)F
Data returned: ~ 10.0 mg/animal/day s.c.

----------
- System Name: human PRA (Homo sapiens)
- Sequence (P06401 165-933): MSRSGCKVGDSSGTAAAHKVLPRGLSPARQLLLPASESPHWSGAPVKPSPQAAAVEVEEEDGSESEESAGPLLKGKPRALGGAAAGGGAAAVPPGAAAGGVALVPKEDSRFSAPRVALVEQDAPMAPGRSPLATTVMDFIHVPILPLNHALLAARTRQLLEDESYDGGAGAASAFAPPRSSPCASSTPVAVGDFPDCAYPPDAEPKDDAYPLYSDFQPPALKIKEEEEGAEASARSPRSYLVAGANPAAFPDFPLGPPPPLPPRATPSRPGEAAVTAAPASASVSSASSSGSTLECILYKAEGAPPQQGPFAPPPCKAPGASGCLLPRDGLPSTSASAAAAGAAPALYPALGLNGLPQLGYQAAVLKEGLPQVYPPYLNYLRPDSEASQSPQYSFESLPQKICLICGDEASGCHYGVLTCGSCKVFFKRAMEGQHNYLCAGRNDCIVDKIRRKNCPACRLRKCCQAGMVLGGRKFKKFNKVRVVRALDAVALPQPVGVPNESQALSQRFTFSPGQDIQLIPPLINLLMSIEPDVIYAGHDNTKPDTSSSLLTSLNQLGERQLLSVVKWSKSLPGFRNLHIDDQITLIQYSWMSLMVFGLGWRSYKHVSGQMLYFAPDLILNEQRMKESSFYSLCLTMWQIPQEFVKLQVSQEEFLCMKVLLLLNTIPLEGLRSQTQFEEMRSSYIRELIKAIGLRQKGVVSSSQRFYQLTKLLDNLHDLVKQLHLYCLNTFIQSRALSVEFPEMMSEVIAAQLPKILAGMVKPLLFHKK
- Assay Text: PR-A transactivation (CHO, MMTV-LUC)
- Condition Parameters: weak agonistic activity, in the range of the maximum concentration tested
Property Name: EC50

Data request: Consider the compound shown here: C[C@]12C[C@H](c3ccc(-c4ccoc4)cc3)C3=C4CCC(=O)C=C4CC[C@H]3[C@@H]1CC[C@]21OCCC1=C(F)F What is its recorded EC50?
Data returned: ~1 µM
